Measured EC50 of Dextramer staining accompanies every entry in the list below.
# SYSTEM NAME: T1, MAGE-A1 peptide on HLA-A*02:01 (human)
# T1 peptide: KVLEYVIKV
# TEST DETAILS: MAGE-A1 Dextramer gradient on transduced JKR9; unit inferred; full-length, on cells
Please reply with the bare figure in nM and do not write the unit itself.

Look up EC50 of Dextramer staining for this binder: A1A2-M01-621 (TCR, V domains shown) Valpha: GEDVEQSLFLSVREGDSSVINCTYTDSEFTYLYWYKQEPGAGLQLLTYIFAFESMKQDQRLTVLLNKKDKHLSLRIADTQTGDSAIYFCAGSGGGTDKLIFGTGTRLQVFP Vbeta: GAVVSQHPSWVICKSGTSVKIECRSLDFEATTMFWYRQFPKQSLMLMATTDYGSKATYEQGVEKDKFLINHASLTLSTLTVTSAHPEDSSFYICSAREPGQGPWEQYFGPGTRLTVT 0.121

Look up EC50 of Dextramer staining for this binder: A1A2-M01-622 (TCR, V domains shown) Valpha: GEDVEQSLFLSVREGDSSVINCTYTDSSSTYLYWYKQEPGAGLQLLTYIFAFESMKQDQRLTVLLNKKDKHLSLRIADTQTGDSAIYFCAGSGGGTDKLIFGTGTRLQVFP Vbeta: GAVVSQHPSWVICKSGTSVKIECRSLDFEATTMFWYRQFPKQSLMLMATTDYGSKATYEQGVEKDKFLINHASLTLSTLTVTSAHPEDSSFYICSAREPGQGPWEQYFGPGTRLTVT 0.0911

Look up EC50 of Dextramer staining for this binder: A1A2-M01-624 (TCR, V domains shown) Valpha: GEDVEQSLFLSVREGDSSVINCTYQYGMSTYLYWYKQEPGAGLQLLTYIFSFMDMKQDQRLTVLLNKKDKHLSLRIADTQTGDSAIYFCAGSGGGTDKLIFGTGTRLQVFP Vbeta: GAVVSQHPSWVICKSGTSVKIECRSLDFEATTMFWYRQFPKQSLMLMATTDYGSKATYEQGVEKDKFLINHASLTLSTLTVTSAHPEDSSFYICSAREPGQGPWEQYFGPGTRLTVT 0.116
